biological target: c-Met kinase domain recombinant protein (Homo sapiens, UniProt P08581); construct: 50 μL diluted solution of c-Met kinase domain recombinant protein in reaction buffer was added to initiate the reaction; assay: biochemical; conditions: read-out: Inhibition rate at 10 μM (%)
Sequence (P08581 1078-1345 limits assumed): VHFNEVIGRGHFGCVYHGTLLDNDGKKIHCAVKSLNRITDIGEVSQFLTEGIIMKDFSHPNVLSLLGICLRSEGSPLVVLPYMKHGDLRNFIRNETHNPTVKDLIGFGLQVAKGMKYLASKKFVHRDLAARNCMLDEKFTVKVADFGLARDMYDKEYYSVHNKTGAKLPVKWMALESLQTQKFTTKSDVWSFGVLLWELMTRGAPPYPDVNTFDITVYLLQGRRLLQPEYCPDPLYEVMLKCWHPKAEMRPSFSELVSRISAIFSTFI
test_readout: inhibition at 10 µM (%)

The examples below pair each entry with its known result.
> print(dat)
                           structure.smiles  numeric.result
1  Cn1cc(-c2cnc3cnn(S(=O)(=O)c4cnc5ccc(Br)cn45)c3c2)cn1            68.2
2  O=C(C1CC1)N1CCC(n2cc(-c3cnc4cnn(S(=O)(=O)c5cnc6ccccn56)c4c3)cn2)CC1            74.1
3  O=S(=O)(c1cnc2ccccn12)n1ncc2ncc(-c3ccoc3)cc21              69
4  Cn1cc(-c2cnc3cnn(S(=O)(=O)c4ccc(C(F)(F)F)cc4)c3c2)cn1            40.6
5  Cn1cc(-c2cnc3cnn(S(=O)(=O)c4cccc(F)c4)c3c2)cn1            57.5
6  CC(C)(C)OC(=O)N1CC=C(c2cnc3cnn(S(=O)(=O)c4cnc5ccccn45)c3c2)CC1            62.5

[I] Cn1cc(-c2cnc3cnn(S(=O)(=O)c4cnc5ccc(-c6ccccc6)cn45)c3c2)cn1
[II] Cn1cc(-c2cnc3cnn(S(=O)(=O)c4ccc(F)cc4F)c3c2)cn1
Asked: So which one has the bigger inhibition at 10 µM here, I or II ? // respond with label for picked entry
Given back: I

---

target: c-Met kinase domain recombinant protein (Homo sapiens); construct: 50 μL diluted solution of c-Met kinase domain recombinant protein in reaction buffer was added to initiate the reaction; experiment: biochemical; settings: read-out: Average inhibition rate at 1 μM (%)
test_readout: inhibition at 1 µM (%)

> print(dat)
                                   molecule  numeric.result
1  O=S(=O)(c1cnc2ccccn12)n1ncc2ncc(-c3ccc4ccccc4c3)cc21 [Example 33]            47.3
2  O=C(Nc1cnc2cnn(S(=O)(=O)c3cnc4ccc(Br)cn34)c2c1)c1ccccc1 [Example 131]            83.6
3  O=C(c1ccc(C(F)(F)F)cc1)N1CCC(n2cc(-c3cnc4cnn(S(=O)(=O)c5cnc6ccccn56)c4c3)cn2)CC1 [Example 58]            55.7
4  Cn1cc(-c2cnc3cnn(S(=O)(=O)c4cnc5ccc(-c6ccc(F)cc6)cn45)c3c2)cn1 [Example 81]            73.6
5  Cn1cc(-c2ccc3ncc(S(=O)(=O)n4ncc5ncc(C6=CCNCC6)cc54)n3c2)cn1 [Example 139]            88.9

[a] CC(C)N1CC=C(c2cnc3cnn(S(=O)(=O)c4cnc5ccc(-c6cnn(C)c6)cn45)c3c2)CC1 [Example 137]
[b] CC(C)(C)OC(=O)N1CC=C(c2cnc3cnn(S(=O)(=O)c4cnc5ccccn45)c3c2)CC1 [Example 35]
Asked: So which one has the bigger inhibition at 1 µM here, a or b ? // respond with label for picked entry
Given back: a
(a: 89.9%, b: 53.2%)

---

target: c-Met kinase domain recombinant protein (Homo sapiens, UniProt P08581); construct: 50 μL diluted solution of c-Met kinase domain recombinant protein in reaction buffer was added to initiate the reaction; experiment: biochemical; settings: read-out: Inhibition rate at 10 μM (%)
test_readout: inhibition at 10 µM (%)

[I] CC(C)N1CCC(n2cc(-c3cnc4cnn(S(=O)(=O)c5cnc6ccc(C(F)(F)F)cn56)c4c3)cn2)CC1
[II] Cn1cc(-c2cnc3cnn(S(=O)(=O)c4ccccc4)c3c2)cn1
Asked: So which one has the bigger inhibition at 10 µM here, I or II ? // respond with label for picked entry
Given back: I
(I: 79.9%, II: 44.1%)

[1] O=C(c1ccc(C(F)(F)F)cc1)N1CCC(n2cc(-c3cnc4cnn(S(=O)(=O)c5cnc6ccccn56)c4c3)cn2)CC1
[2] O=S(=O)(c1cnc2ccccn12)n1ncc2ncc(-c3ccc(CN4CCOCC4)cc3)cc21
Asked: Between item 1 and item 2 , which reported inhibition at 10 µM is smaller? // respond with label for picked entry
Given back: 1
(1: 58.9%, 2: 87.1%)

---

molecular target: c-Met kinase domain recombinant protein (Homo sapiens, UniProt P08581); construct: 50 μL diluted solution of c-Met kinase domain recombinant protein in reaction buffer was added to initiate the reaction; experiment: biochemical; settings: read-out: Inhibition rate at 10 μM (%)
test_readout: inhibition at 10 µM (%)

> print(dat)
                                   compound  numeric.result
1  CC(C)(C)OC(=O)N1CCC(n2cc(-c3cnc4cnn(S(=O)(=O)c5cnc6ccc(Cl)nn56)c4c3)cn2)CC1 [Example 61]            59.8
2  CN1CCN(C(=O)c2ccc(-c3cnc4cnn(S(=O)(=O)c5cnc6ccccn56)c4c3)cc2)CC1 [Example 37]            73.3
3  Cn1cc(-c2cnc3ccn(S(=O)(=O)c4ccccc4[N+](=O)[O-])c3c2)cn1 [Compound 1]            88.1
4  CCN1CCC(n2cc(-c3cnc4cnn(S(=O)(=O)c5cnc6ccccn56)c4c3)cn2)CC1 [Example 53]            65.7
5  CC(C)(C)OC(=O)N1CCC(n2cc(-c3cnc4cnn(S(=O)(=O)c5cnc6ccc(-c7cnn(C8CCN(C(=O)OC(C)(C)C)CC8)c7)cn56)c4c3)cn2)CC1 [Example 68]            69.8
6  CC(C)(C)OC(=O)N1CCC(n2cc(-c3cnc4cnn(S(=O)(=O)c5cnc6ccc(Cl)cn56)c4c3)cn2)CC1 [Example 67]              66
7  Cn1cc(-c2cnc3cnn(S(=O)(=O)c4c(Cl)nc5sccn45)c3c2)cn1 [Compound 18]              64

---

test system: EBC-1 cell; assay: Test III: growth inhibition of non-small cell carcinoma EBC-1 cell (SRB); assay type: cell-based; settings: Homo sapiens, EBC-1, 72 h, read-out: Cell proliferation inhibition rate at 200 nM (%)
Each entry below carries its reported inhibition at 0.2 µM.
Write the value in % as a bare number.

The examples below pair each entry with its known result.
> print(dat)
                           structure.smiles  target.entity  result.unit  numeric.result
1  Cn1cc(-c2ccc3ncc(S(=O)(=O)n4ncc5ncc(-c6ccc(CN7CCOCC7)cc6)cc54)n3c2)cn1     EBC-1 cell            %            92.3
2  Cn1cc(-c2cnc3cnn(S(=O)(=O)c4cnc5ccc(-c6cn[nH]c6)cn45)c3c2)cn1     EBC-1 cell            %            77.7
3  Cn1cc(-c2cnc3cnn(S(=O)(=O)c4cnc5ccc(OC(=O)c6ccco6)cn45)c3c2)cn1     EBC-1 cell            %              79
4  CN1CCN(C(=O)c2ccc(-c3cnc4cnn(S(=O)(=O)c5cnc6ccc(-c7cnn(C)c7)cn56)c4c3)cc2)CC1     EBC-1 cell            %            92.1

Asked: Provide measured inhibition at 0.2 µM value, entry: "COc1ccc(-c2cnc3cnn(S(=O)(=O)c4cnc5ccc(O)cn45)c3c2)cc1"
Given back: 35.1

Asked: Provide measured inhibition at 0.2 µM value, entry: "Cn1cc(-c2ccc3ncc(S(=O)(=O)n4ncc5ncc(C6=CCNCC6)cc54)n3c2)cn1"
Given back: 90.7

Asked: Provide measured inhibition at 0.2 µM value, entry: "CC(C)N1CCC(n2cc(-c3cnc4cnn(S(=O)(=O)c5cnc6ccc(-c7cnn(C)c7)cn56)c4c3)cn2)CC1"
Given back: 92.4

Asked: Provide measured inhibition at 0.2 µM value, entry: "O=S(=O)(c1cnc2ccc(-c3cn[nH]c3)cn12)n1ncc2ncc(-c3cn[nH]c3)cc21"
Given back: 85.7

Asked: Provide measured inhibition at 0.2 µM value, entry: "CCN1CCC(n2cc(-c3cnc4cnn(S(=O)(=O)c5cnc6ccc(-c7cnn(C)c7)cn56)c4c3)cn2)CC1"
Given back: 90.9

Asked: Provide measured inhibition at 0.2 µM value, entry: "Cn1cc(-c2ccc3ncc(S(=O)(=O)n4ncc5ncc(C6=CCN(C7CCCC7)CC6)cc54)n3c2)cn1"
Given back: 89.4

---

target: c-Met kinase domain recombinant protein (Homo sapiens, UniProt P08581); construct: 50 μL diluted solution of c-Met kinase domain recombinant protein in reaction buffer was added to initiate the reaction; experiment: biochemical; settings: read-out: Average inhibition rate at 1 μM (%)
test_readout: inhibition at 1 µM (%)

The examples below pair each entry with its known result.
> print(dat)
                           structure.smiles  result.unit  numeric.result
1  CCN1CCC(n2cc(-c3cnc4cnn(S(=O)(=O)c5cnc6ccccn56)c4c3)cn2)CC1            %            68.4
2  COc1ccc(-c2ccc3ncc(S(=O)(=O)n4ncc5ncc(-c6cnn(C)c6)cc54)n3c2)cc1OC            %            61.5
3  O=S(=O)(c1cnc2ccccn12)n1ncc2ncc(-c3ccc4c(c3)OCCO4)cc21            %              60
4  O=S(=O)(c1cnc2ccc(C(F)(F)F)cn12)n1ncc2ncc(-c3cnn(C4CCNCC4)c3)cc21            %            65.1
5  Cn1cc(-c2cnc3cnn(S(=O)(=O)c4cnc5ccc(-c6cnn(C7CCNCC7)c6)cn45)c3c2)cn1            %            63.8

[a] Cn1cc(-c2ccc3ncc(S(=O)(=O)n4ncc5ncc(C6=CCN(C7CCCC7)CC6)cc54)n3c2)cn1
[b] COc1cccc(C(=O)Nc2cnc3cnn(S(=O)(=O)c4cnc5ccc(OC)cn45)c3c2)c1
Asked: So which one has the bigger inhibition at 1 µM here, a or b ? // respond with label for picked entry
Given back: a

[1] Cn1cc(-c2cnc3cnn(S(=O)(=O)c4ccccc4C#N)c3c2)cn1
[2] COc1ccc(-c2ccc3ncc(S(=O)(=O)n4ncc5ncc(-c6cnn(C)c6)cc54)n3c2)cc1
[3] O=S(=O)(c1c[nH]c2ncc(-c3ccc(N4CCOCC4)cc3)cc12)n1ncc2cccnc21
Asked: Output the entries ranked by inhibition at 1 µM from maximum down to minimum. Output spec: a listing of the labels in the requested order.
Given back: 2, 1, 3
(2: 79.9%, 1: 51.6%, 3: 13.5%)
